method-summary: solvent given as SMILES
recorded-conditions: in CC1CCCCC1
Lab note: cut-off is 400 nm. Strictly less in absorption maximum is yes. Exactly 400 nm or more is no.

Sample answers from the record:
                                   compound  classification
0  COC(=O)C(NC(=O)OC(C)(C)C)c1ccc2oc(-c3ccc(OC(=O)c4ccccc4)cc3OC(=O)c3ccccc3)nc2c1 (stereo unspecified)             yes
1  CC(C)(C)c1cc2c3cc(C(C)(C)C)c(-c4cc5cc6c7cccc8cccc(c9cc(C(C)(C)C)cc(c5cc4C(C)(C)C)c96)c87)cc3cc3c4cccc5cccc(c(c1)c23)c54              no
2  COC(=O)C(NC(=O)OC(C)(C)C)c1ccc2oc(-c3ccc(C#N)cc3)nc2c1 (stereo unspecified)             yes

Hello, I'm reviewing records and need to know if absorption maximum of CCCOc1ccc(/C=C/C=C/C=C/c2ccc([N+](=O)[O-])cc2)cc1 is below 400 nm. Could you check? no

Hello, I'm reviewing records and need to know if absorption maximum of CC(C)(C)c1ccc2oc(-c3ccc(-c4nc5cc(C(C)(C)C)ccc5o4)s3)nc2c1 is below 400 nm. Could you check? yes

Hello, I'm reviewing records and need to know if absorption maximum of CN(C)c1ccc(C2=Cc3c4ccccc4c4ccccc4[n+]3[B-](F)(F)O2)cc1 is below 400 nm. Could you check? no

* * *

method-summary: solvent given as SMILES
recorded-conditions: in CCO
Lab note: cut-off is 400 nm. Strictly less in absorption maximum is Y. Exactly 400 nm or more is N.

Hello, I'm reviewing records and need to know if absorption maximum of C[Si]1(C)C2=CC(=[N+]3CCC3)C=C(F)C2=Nc2c(F)cc(N3CCC3)cc21 is below 400 nm. Could you check? N

Hello, I'm reviewing records and need to know if absorption maximum of O=S(=O)([O-])c1ccc(O)c2ccccc12 is below 400 nm. Could you check? Y

Hello, I'm reviewing records and need to know if absorption maximum of CC(=O)c1ccc2ccc3cccc4ccc1c2c34 is below 400 nm. Could you check? Y

Hello, I'm reviewing records and need to know if absorption maximum of O=c1c2cc(F)c(O)cc2n(Cc2ccccc2)c2cc(O)c(F)cc12 is below 400 nm. Could you check? Y

Hello, I'm reviewing records and need to know if absorption maximum of CN1/C(=C/C=C(/C=C/c2sc3ccccc3[n+]2C)c2ccc(C(F)(F)F)cc2)Sc2ccccc21 is below 400 nm. Could you check? N

Hello, I'm reviewing records and need to know if absorption maximum of COc1ccc(-c2csc(/C(C#N)=C\Nc3ccc(C#N)cc3)n2)cc1 is below 400 nm. Could you check? Y

Hello, I'm reviewing records and need to know if absorption maximum of CN(C)c1ccc(/C=C/c2cc[n+](C)cc2)cc1 is below 400 nm. Could you check? N

Hello, I'm reviewing records and need to know if absorption maximum of CN1/C(=C/C=C(/C=C/C2=[N+](C)c3ccccc3C2(C)C)c2cc(F)cc(F)c2)C(C)(C)c2ccccc21 is below 400 nm. Could you check? N

Hello, I'm reviewing records and need to know if absorption maximum of CCOC(=O)c1cc(C(=O)OCC)c2c(C)ccc(O)c2n1 is below 400 nm. Could you check? Y

Hello, I'm reviewing records and need to know if absorption maximum of CN(C)c1cc(F)c(C(=O)c2cc(F)c(N(C)C)cc2F)cc1F is below 400 nm. Could you check? Y

Hello, I'm reviewing records and need to know if absorption maximum of CN(C)c1ccc2nc(/C=C/c3ccccc3)c(=O)oc2c1 is below 400 nm. Could you check? N

Hello, I'm reviewing records and need to know if absorption maximum of Nc1ccc2c(-c3ccc(Br)cc3)c3ccc(=[NH2+])cc-3oc2c1 is below 400 nm. Could you check? N

Hello, I'm reviewing records and need to know if absorption maximum of CCOC(=O)c1ccccc1-c1c2ccc(=[N+](CC)CC)cc-2oc2cc(N(CC)CC)ccc12 is below 400 nm. Could you check? N

Hello, I'm reviewing records and need to know if absorption maximum of COC(=O)CNC(=O)CCNc1cccc2ccccc12 is below 400 nm. Could you check? Y

Hello, I'm reviewing records and need to know if absorption maximum of CCOC(=O)c1cc(C(=O)OCC)c2cc(N(CC)CC)ccc2n1 is below 400 nm. Could you check? N

Hello, I'm reviewing records and need to know if absorption maximum of CN(C)c1ccc(/C=C/C=C2\CC/C(=C\c3ccc(N(C)C)cc3)C2=O)cc1 is below 400 nm. Could you check? N

Hello, I'm reviewing records and need to know if absorption maximum of Cc1cc(O)c(C(C)C)cc1/N=C/c1ccc(C(F)(F)F)cc1 is below 400 nm. Could you check? Y

Hello, I'm reviewing records and need to know if absorption maximum of Oc1cccc(O)c1-c1c2ccc(=[N+]3CCCCC3)cc-2oc2cc(N3CCCCC3)ccc12 is below 400 nm. Could you check? N

Hello, I'm reviewing records and need to know if absorption maximum of COC(=O)C(CCCCNC(=O)CCNc1cccc2ccccc12)NC(C)=O (centres undefined) is below 400 nm. Could you check? Y

Hello, I'm reviewing records and need to know if absorption maximum of O=c1[nH]c2ccccc2[nH]1 is below 400 nm. Could you check? Y

Hello, I'm reviewing records and need to know if absorption maximum of CCN(C(C)=O)c1cc2c(cc1C)C(c1ccccc1C(=O)O)=C1CCCC(/C=C/C3=[N+](C)c4ccc5ccccc5c4C3(C)C)=C1O2 is below 400 nm. Could you check? N

Hello, I'm reviewing records and need to know if absorption maximum of CN(C)c1ccc2c(-c3ccc(N)cc3C(=O)[O-])c3ccc(=[N+](C)C)cc-3oc2c1 is below 400 nm. Could you check? N

Hello, I'm reviewing records and need to know if absorption maximum of COC(=O)c1ccc2ccc3cccc4ccc1c2c34 is below 400 nm. Could you check? Y

* * *

method-summary: solvent given as SMILES
recorded-conditions: in C1CCOC1
measured-quantity: absorption maximum (nm)
Could you give me the number in nm? Just the number is fine.

Worked examples, 4 compounds total:
compound	absorption maximum (nm)
CCCCCC(CC)C1(C(CC)CCCCC)c2ccccc2-c2ccc(C#Cc3cc(C#Cc4ccc5c(c4)C(C(CC)CCCCC)(C(CC)CCCCC)c4ccccc4-5)c4ccc5c(C#Cc6ccc7c(c6)C(C(CC)CCCCC)(C(CC)CCCCC)c6ccccc6-7)cc(C#Cc6ccc7c(c6)C(C(CC)CCCCC)(C(CC)CCCCC)c6ccccc6-7)c6ccc3c4c65)cc21 (stereo unspecified)	492
CCCCCCCCN1c2ccc(C#Cc3ccc(C(F)(F)F)cc3)cc2Sc2cc(C=O)ccc21	384.01
Cc1ccc(C2=C3C=CC(C#Cc4ccccc4)=[N+]3[B-](F)(F)n3c(Cl)ccc32)cc1	560
O=P1(c2ccccc2)C(c2cc(C(F)(F)F)cc(C(F)(F)F)c2)=Cc2c3ccc4cccc5ccc(c6cc(-c7ccc(N(c8ccccc8)c8ccccc8)cc7)n1c26)c3c45 (stereo unspecified)	437

Specify reported absorption maximum for the compound shown: O=C1/C(=C2\Nc3cc4ccc5cccc6ccc(c3C2=O)c4c56)Nc2cc3ccc4cccc5ccc(c21)c3c45 687

Specify reported absorption maximum for the compound shown: CCOc1cc2c(cc1/C=C/C1=CC(=C(C#N)C#N)CC(C)(C)C1)c1ccccc1n2CC 476

* * *

method-summary: solvent given as SMILES
recorded-conditions: in C1CCOC1
Each entry below carries its recorded absorption maximum.
Could you give me the number in nm? Just the number is fine.

Worked examples, 5 compounds total:
compound	absorption maximum, nm
O=[N+]([O-])c1ccc(NCCN(Cc2c3ccccc3cc3ccccc23)c2ccc([N+](=O)[O-])cc2[N+](=O)[O-])c([N+](=O)[O-])c1	372
CCC1(CC)c2cc(/C=C/c3cc(Br)c(/C=C/c4ccc5c(c4)C(CC)(CC)c4cc(N6c7ccccc7Sc7ccccc76)ccc4-5)cc3Br)ccc2-c2ccc(N3c4ccccc4Sc4ccccc43)cc21	439.91
COC(=O)c1ccc(/C=C/C(F)(F)F)c(N)c1	372
CCCCC(CC)CN1C(=O)c2cccc3c(C#Cc4ccc(N(c5ccccc5)c5ccc(C#Cc6ccc7c8c(cccc68)C(=O)N(CC(CC)CCCC)C7=O)cc5)cc4)ccc(c23)C1=O (configuration not stated)	451
CN(C)c1ccc(C2=Nc3sc4ccccc4[n+]3[B-](F)(F)O2)cc1	424

Specify reported absorption maximum for the compound shown: c1ccc(-c2cc(-c3ccccc3)cc(-c3ccc4c(c3)C3(c5ccccc5-4)c4ccccc4-c4c3c3c5ccccc5c(-c5cc(-c6ccccc6)cc(-c6ccccc6)c5)cc3c3ccccc43)c2)cc1 (configuration not stated) 387

Specify reported absorption maximum for the compound shown: CCCCn1c2ccc(/C=C(\C#N)c3ccc([N+](=O)[O-])cc3)cc2c2cc(Cn3c(-c4ccc5c(c4)c4ccccc4n5CCCC)nc4ccccc43)ccc21 410
